FYI, the data here is from paper PMC5540273.

- System: CSNK1D;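 note: KINOMEscan kinase panel screen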
- RUN_PARAMETERS: concentration: 1 μM,replicates: in singlicate; n = 1
EXPERIMENTAL_READOUT: %Inh (%)
Express your answer in %, writing the number without its unit.

## Input In one line, give reported %Inh of the entry C=CC(=O)Nc1cc2c(Nc3ccc(F)c(Cl)c3)ncnc2cc1OCCCN1CCOCC1 .
## Output 0

## Input In one line, give reported %Inh of the entry Cc1n[nH]c2ccc(-c3cc(OC[C@@H](N)Cc4ccccc4)cnc3-c3ccoc3)cc12.O=C(O)C(F)(F)F.O=C(O)C(F)(F)F .
## Output 98

## Input In one line, give reported %Inh of the entry CC(C)Nc1cc(-c2ccc3c(N)n[nH]c3c2)nc(N)n1 .
## Output 34

## Input In one line, give reported %Inh of the entry Cl.Cl.NC[C@H](Cc1ccc(C(F)(F)F)cc1)NC(=O)c1cc(Br)c(-c2ccnc3[nH]ccc23)s1 .
## Output 55

## Input In one line, give reported %Inh of the entry CC(C)N1C(=O)Cc2cc(Nc3ncc(C(F)(F)F)c(NCc4cccc(S(C)(=O)=O)c4)n3)ccc21 .
## Output 0
